- tested system: recombinant thrombin
- experiment summary: selectivity inhibition assay
Starred links: 1 amine or outer side, 2 acyl side, 3 side chain; linkers in the order of their positions; H or OH if unused. No end group written: not given here. *: point of attachment. Kbt‑6‑CONH = ketobenzothiazole-6-CONH (amide link to Val), O=C(c1ccc2nc([*:1])sc2c1)[*:2]; kbt = C-terminal ketobenzothiazole, c1ccc2sc(*)nc2c1
property measured: Ki (µM)
Give the value in µM but do not write µM after it.

The measured Ki associated with H-Leu-Leu-Arg-{kbt-Val-NH2} [H-LLR-kbt-Val-NH2] reads 0.101

Quick note, Ki for Ac-KQLR-{Kbt‑6‑CONH-Val-NH2} [Ac-KQLR(SEQ ID NO: 1)-Kbt-Val-NH2] landed at 3.21

Per the record, Ac-SKLR (not fully specified (C-terminus)) [Ac-SKLR(SEQ ID NO: 10)-Kbt-Trp-NH2] has Ki of 1.23
